tested on: Saccharomyces cerevisiae ABC16-Green Monster; conditions: 18 h; 30 °C; YPD
assayMetric: log10 of IC50 growth inhibition (log10 of the value in µM)
On a log10 scale: recorded IC50 growth inhibition, unit µM.

INPUT: State, in one line, measured log10 of IC50 growth inhibition of CCCCCCCCCCCCCCCCOP(=O)([O-])OCC[N+](C)(C)C
OUTPUT: 0.97

INPUT: Give the reported value of log10 of IC50 growth inhibition for this record: CCN(CC)S(=O)(=O)c1ccc(C(=O)Nc2cc(C)nn2-c2nc(C)c(C)c(=O)[nH]2)cc1
OUTPUT: 1.84

INPUT: Consider the molecule C[C@H]1Cc2c([nH]c3cc(Cl)c(F)cc23)[C@@]2(N1)C(=O)Nc1ccc(Cl)cc12 and give its recorded log10 of IC50 growth inhibition.
OUTPUT: 0.88

INPUT: Give log10 of IC50 growth inhibition for Oc1c(I)cc(I)c2cccnc12
OUTPUT: 0.74

INPUT: Please report log10 of IC50 growth inhibition for the following molecule: O=C(Nc1ccc([N+](=O)[O-])cc1Cl)c1cc(Cl)ccc1O [Niclosamide]
OUTPUT: 0.18

Hello, the source for this data is the supplement of paper PMC8837787, in case you need it.
